Recorded pKi values for a group of compounds are listed next.
# SYSTEM NAME: recombinant human ALK5 (TGF-βR1) protein (Homo sapiens)
# Sequence (P36897 34-503): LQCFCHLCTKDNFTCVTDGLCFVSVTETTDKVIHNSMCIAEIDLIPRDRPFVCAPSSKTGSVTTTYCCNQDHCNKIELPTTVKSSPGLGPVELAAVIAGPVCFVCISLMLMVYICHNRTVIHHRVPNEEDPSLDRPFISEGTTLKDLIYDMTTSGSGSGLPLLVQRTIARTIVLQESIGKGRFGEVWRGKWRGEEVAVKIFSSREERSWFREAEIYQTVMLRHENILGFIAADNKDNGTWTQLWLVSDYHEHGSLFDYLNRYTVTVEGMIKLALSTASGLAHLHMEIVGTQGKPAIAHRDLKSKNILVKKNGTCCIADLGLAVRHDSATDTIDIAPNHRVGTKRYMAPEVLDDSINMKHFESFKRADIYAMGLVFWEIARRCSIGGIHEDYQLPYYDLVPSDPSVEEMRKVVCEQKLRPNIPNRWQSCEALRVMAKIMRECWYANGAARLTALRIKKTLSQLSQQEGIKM
# PROTOCOL DETAILS: Biochemical ALK5 (TGF-βR1) assay to measure pKi (LANCE Ultra ULight kinase assay)
# MEASUREMENT PARAMETERS: apparent pKi, converted from pIC50 by Cheng-Prusoff
# Protocol: The assays were performed in a 384-well plate (24 columns×16 wells/rows). An Echo®550 Liquid Handler (Labcyte) was used to prepare various intermediate concentrations of compounds of the present disclosure in 100% DMSO. […] For dose-response analyses, percent inhibition versus compound concentrations were plotted, and pIC50 values were determined from a 4-parameter robust fit model with GraphPad Prism V5 Software (GraphPad Software, Inc., La Jolla, CA). […]
pKi: −log10 of the molar value.

A selection of reference data follows.
Cc1cccc(-c2nccc(Nc3ccnc(Nc4nc(CN5CCC[C@@H](C(=O)OCC6CNC6)C5)cs4)n3)n2)n1 [Compound 155]	8.50 to 9.40
Cc1cccc(-c2nccc(Nc3ccnc(Nc4nc(C5=CCNCC5)cs4)n3)n2)n1 [Compound 571]	9.50 to 10.40
Cc1cccc(-c2nccc(Nc3ccnc(Nc4cnn(C5CCCNC5)c4)n3)n2)n1 (stereo not shown) [Compound 373]	≥ 10.50
Cc1cccc(-c2nccc(Nc3ccnc(Nc4ccc(N5CC6(CNC6)C5)cc4)n3)n2)n1 [Compound 15]	9.50 to 10.40

The recorded pKi for entry CN1CCN(C2CCN(c3ccc(Nc4nccc(Nc5ccnc(-c6ccccc6F)n5)n4)cc3)CC2)CC1 [Compound 446] equals 8.50 to 9.40

The recorded pKi for entry Cc1cccc(-c2nccc(Nc3ccnc(Nc4ccc(NCCN5CCOCC5)cc4)n3)n2)n1 [Compound 355] equals 8.50 to 9.40

The recorded pKi for entry Cc1cccc(-c2nccc(Nc3ccnc(Nc4ccc(C5CCNCC5)cn4)n3)n2)n1 [Compound 114] equals 8.50 to 9.40

The recorded pKi for entry COc1ncc(Nc2nccc(Nc3ccnc(-c4cccc(C)n4)n3)n2)cc1NS(C)(=O)=O [Compound 20] equals 8.50 to 9.40

The recorded pKi for entry Cc1cccc(-c2nccc(Nc3ccnc(Nc4ccc(Cc5ncco5)cc4)n3)n2)n1 [Compound 485] equals 8.50 to 9.40

The recorded pKi for entry Cc1cccc(-c2nccc(Nc3ccnc(Nc4cccc(CN5CCSCC5)c4)n3)n2)n1 [Compound 39] equals 9.50 to 10.40

Values were extracted from patent US20230399312A1.
